Test system: PPARg:RXRa DBDmut IVT, anti-RXR (DBD mutation: RXRa K156A/R161A, NR concentration 270 nM, RXRa partner concentration 90 nM)
Experiment: PBM binding z-score (relative to random genomic background probes); higher = stronger binding; sequences stand for … in GC…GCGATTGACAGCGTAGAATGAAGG
Rule: PBM binding z-score under 5 gives not met, otherwise met.

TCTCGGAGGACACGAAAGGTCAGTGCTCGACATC; not met
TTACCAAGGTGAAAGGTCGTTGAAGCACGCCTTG; not met
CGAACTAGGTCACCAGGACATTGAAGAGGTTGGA; met
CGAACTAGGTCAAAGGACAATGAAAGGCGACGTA; met

Assess whether reported PBM binding z-score for `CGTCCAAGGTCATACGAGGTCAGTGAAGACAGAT` sits at 5 or higher.
not met

----------
System: PPARg:RXRa 30nM:10nM, anti-RXR (NR concentration 30 nM, RXRa partner concentration 10 nM)
Experiment: PBM binding z-score (relative to random genomic background probes); higher = stronger binding; sequences stand for … in GC…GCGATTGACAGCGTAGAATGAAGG
Please map values of PBM binding z-score to classes as shown: low bin = under 0.6, mid bin = from 0.6 up to 5, high bin = 5 and over

Below are worked cases with known answers.
TATACAGGGTCTAAGGCCAGAGTACGAATGTCGA; mid bin
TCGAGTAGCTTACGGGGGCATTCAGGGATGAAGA; mid bin
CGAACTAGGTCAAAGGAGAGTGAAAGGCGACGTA; high bin
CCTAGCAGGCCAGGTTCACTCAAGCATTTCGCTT; low bin
GGAACGAGCGCAAAGTTGATAGCATCTGTCGACG; mid bin

Assign a bin to `CCGATTAGGTTACGAGGGGGCATTCAGTGCGAAT`
low bin

Consider `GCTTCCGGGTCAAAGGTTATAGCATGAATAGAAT` . To which PBM binding z-score class does it belong?
high bin

Lab log: `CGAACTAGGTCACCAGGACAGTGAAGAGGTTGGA` — assign PBM binding z-score category
mid bin

Returns: class label. Input: `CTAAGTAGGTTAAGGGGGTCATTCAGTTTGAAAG`
high bin

Would you mind sorting `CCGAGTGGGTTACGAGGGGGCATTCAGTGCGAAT` into the appropriate category?
low bin

Into which bin does this sequence go? `GCTGCTAGGTCATGTTGGTCAGCTAACGGGTACG`
low bin

Categorize the following entry: `AATACAGGGTCACTGGGCCAGAGTAGGTACGAAT`
mid bin

----------
Test system: RXRa DBDmut IVT, anti-RXR (DBD mutation: RXRa K156A/R161A, NR concentration 90 nM)
Assay: PBM binding z-score (relative to random genomic background probes); higher = stronger binding; sequences stand for … in GC…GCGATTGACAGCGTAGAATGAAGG
Readout type: PBM binding z-score
Answer as a number with no unit attached.

# count of solved cases: 2
CTCGAAAGGGCGTGCTCAGGTGAGTATACCAAAC; 0.316
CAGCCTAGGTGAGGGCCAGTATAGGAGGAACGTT; -0.941

Let me know recorded PBM binding z-score for `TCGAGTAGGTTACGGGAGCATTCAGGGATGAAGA` , thanks.
-0.267

Assign PBM binding z-score to the following record: `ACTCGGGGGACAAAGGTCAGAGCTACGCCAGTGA`
2.06

Give recorded PBM binding z-score. `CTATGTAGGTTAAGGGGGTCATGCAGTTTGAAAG`
2.12

Annotate the sequence `TAGCCTAGGTCAGATCGGGCCAGTCTACGCTATA` with its measured PBM binding z-score.
-0.601

----------
Readings of PBM binding z-score for the listed sequences
System: RARb homodimer (NR concentration 270 nM)
Test: PBM binding z-score (relative to random genomic background probes); higher = stronger binding; sequences stand for … in GC…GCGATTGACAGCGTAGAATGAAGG
Please reply with the number alone, leaving off any unit.

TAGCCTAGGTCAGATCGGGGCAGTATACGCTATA; 2.27

Please supply the value of reported PBM binding z-score for the item `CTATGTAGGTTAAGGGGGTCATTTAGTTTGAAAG`
3.86

Specify reported PBM binding z-score for the sequence shown: `AGTCAAAGGTCACTAGGTAACGTAAGATTCAGCT`
5.03

----------
System: PPARg:RXRa DBDmut IVT, anti-RXR (DBD mutation: RXRa K156A/R161A, NR concentration 270 nM, RXRa partner concentration 90 nM)
Assay: PBM binding z-score (relative to random genomic background probes); higher = stronger binding; sequences stand for … in GC…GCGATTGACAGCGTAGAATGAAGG
Decide by PBM binding z-score: equal to or exceeding 4 means Y, less means N.

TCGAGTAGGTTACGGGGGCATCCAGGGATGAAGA; Y
CCGGGTAGGTTACGAGGGGGCATTCAGTGCGAAT; N
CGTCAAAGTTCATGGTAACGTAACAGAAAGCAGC; N
CCTACTGGGCCAAGGTCATAGATCAGTCAAAGCA; N
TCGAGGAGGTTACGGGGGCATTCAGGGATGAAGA; N

Here is another sequence to look at.
hey, is PBM binding z-score for this one >= 4? `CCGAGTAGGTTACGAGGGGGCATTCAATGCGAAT`
Y

----------
System: PXR:RXRa (NR concentration 270 nM, RXRa partner concentration 90 nM)
Assay: PBM binding z-score (relative to random genomic background probes); higher = stronger binding; sequences stand for … in GC…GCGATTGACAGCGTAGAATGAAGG
Binary classification by PBM binding z-score, with 2 as an inclusive lower bound for fulfilled; all other cases are not fulfilled.

Some solved cases for reference:
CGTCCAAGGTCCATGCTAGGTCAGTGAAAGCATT; not fulfilled
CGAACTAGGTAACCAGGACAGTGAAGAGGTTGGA; not fulfilled
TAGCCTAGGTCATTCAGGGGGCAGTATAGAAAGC; fulfilled
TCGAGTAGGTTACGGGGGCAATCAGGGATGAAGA; fulfilled
ACTCGGAGGATAAAGGTCAGAGCTACGCCAGTGA; fulfilled
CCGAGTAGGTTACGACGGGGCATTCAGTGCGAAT; not fulfilled
CAAAGTAGGTCAAGAGGTCAAAGTCCGCTTCCCG; fulfilled
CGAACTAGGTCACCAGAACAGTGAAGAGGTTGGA; not fulfilled

Could you please find out whether `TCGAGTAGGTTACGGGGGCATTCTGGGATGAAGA` has PBM binding z-score that meets 2 or exceeds it?
fulfilled

Could you verify whether the entry `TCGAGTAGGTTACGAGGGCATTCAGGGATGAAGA` shows PBM binding z-score of no less than 2?
not fulfilled

Check the entry `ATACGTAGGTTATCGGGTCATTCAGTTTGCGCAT` : does PBM binding z-score equal or exceed 2?
fulfilled

Does PBM binding z-score meet or surpass 2 for `CGAACTAGGTCAAAGTACAGTGAAAGGCGACGTA` ?
not fulfilled

Is reported PBM binding z-score greater than or equal to 2 here: `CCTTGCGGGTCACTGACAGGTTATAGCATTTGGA`
fulfilled

Form field: PBM binding z-score at least 2? Entry: `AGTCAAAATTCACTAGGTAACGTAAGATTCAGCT`
not fulfilled

Please indicate if the recorded PBM binding z-score for `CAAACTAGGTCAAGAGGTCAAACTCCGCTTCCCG` meets or exceeds 2.
fulfilled

----------
System: THRa:RXRa (NR concentration 90 nM, RXRa partner concentration 90 nM)
Assay: PBM binding z-score (relative to random genomic background probes); higher = stronger binding; sequences stand for … in GC…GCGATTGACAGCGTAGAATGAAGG
Readout type: PBM binding z-score
Please give only the number in your answer, with no unit.

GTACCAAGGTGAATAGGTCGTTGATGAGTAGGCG; 1.79
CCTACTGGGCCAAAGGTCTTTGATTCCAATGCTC; 0.0869
CTATGTAGGTAAAGGGGGTCATTCAGTTTGAAAG; 3.66
CCTCGGAGGACAACCGGAGGTCAGAGCTGCCAGA; 3.14
TCGAATAGGTTACGGGGGCATTCAGGGATGAAGA; 4.29
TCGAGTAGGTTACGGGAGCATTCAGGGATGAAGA; 1.89
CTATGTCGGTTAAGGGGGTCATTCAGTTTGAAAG; 3.9
CCTAGTTGGTCAGGGGGTCACACACCGGATATGA; 3.88
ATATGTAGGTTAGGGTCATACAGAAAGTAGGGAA; 4.1
TCTCGGAGGTCACGAAGGTCAGAGCTTTCCAGAG; 4.64

Give the reported value of PBM binding z-score for this record: `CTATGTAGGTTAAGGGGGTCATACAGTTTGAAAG`
4

Give reported PBM binding z-score value for `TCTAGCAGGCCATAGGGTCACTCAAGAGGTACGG`
3.25

Provide only the value of recorded PBM binding z-score for `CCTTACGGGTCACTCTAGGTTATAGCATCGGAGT`
4.93
